Substrate: N[C@@H](Cc1c[nH]c2ccccc12)C(=O)O
experiment: HPLC end-point assay, Michaelis-Menten fit
Format: biochemical, Micromonospora olivasterospora
measurement_parameters: 2 mM DMAPP, 50 mM Tris pH 8.0, 37 °C
measurement_type: Km

Q: For the protein shown here, 6DMATSmo (Micromonospora olivasterospora; H329Y/Y277H) (protein) MAGLSVSDHLDGQLARLCEVAGADPVEPRNLLAGLLGPVGPRPLYEPPAWPSGVSDDHTPVEFSIAFNEAEPPTLRILGETLGSPPGPLANLSATRGFLDAQARRAGLSTSRLDSVRDLFATDDPQGDFAMWCSLVFRSSRRPEFKVYLNPEVKGVERSPALVSEALHRLGLGASYRALLDHGVRPGELGRGDRLTFFAVDLHDGPQARVKLYLTHHEAEVWDVTRAASVVDGVDVAEIEEFCVVAGGGTRRFDGRPLVGSYTFTEGADRPVGYSIHVPIRSYVTDDQEARDRVAALLVRYGFDTDGLDRAIAAVTPRPLRDGVGLIAYVSLRLGAPRPGVTVYLSAEAYRVSPPRPRRMPAGRDVSPAPVGRTRP , give the reported Km.
A: 1.0 ± 0.1 mM
